- target_under_test: hMC4-R (Homo sapiens (Human))
- method_description: High and low density hMC4-R functional assay (cAMP, HEK293-T-REx-MC4-R cells)
- Assay type: cell-based
- experimental_parameters: 0.1 ng/mL Doxycycline (low density hMC4-R system)
pEC50: −log10 of the molar value.
Rule: yes (1) for pEC50 not less than 8, no (0) for anything less.

Some solved entries appear below for comparison.
chem_smiles: CC(=O)N[C@@H](CCCNC(=N)N)C(=O)N[C@H]1CCCNC(=O)CC[C@@H](C(N)=O)NC(=O)[C@H](Cc2c[nH]c3ccccc23)NC(=O)[C@H](CCCNC(=N)N)NC(=O)[C@@H](Cc2ccccc2C(F)(F)F)NC(=O)[C@H](CCC(N)=O)NC1=O
target_under_test: hMC4-R (Homo sapiens (Human))
qualitative_label: yes (1)

chem_smiles: CC(=O)N[C@@H](CCCNC(=N)N)C(=O)N[C@H]1CCC(=O)NCCC[C@@H](C(N)=O)NC(=O)[C@H](Cc2c[nH]c3ccccc23)NC(=O)[C@H](CCCNC(=N)N)NC(=O)[C@@H](Cc2ccc(N)cc2)NC(=O)[C@H](CCN)NC1=O
target_under_test: hMC4-R (Homo sapiens (Human))
qualitative_label: no (0)

chem_smiles: CC(=O)N[C@@H](CCCNC(=N)N)C(=O)N[C@H]1CCCNC(=O)CC[C@@H](C(N)=O)NC(=O)[C@H](Cc2c[nH]c3ccccc23)NC(=O)[C@H](CCCNC(=N)N)NC(=O)[C@@H](Cc2cc(F)cc(F)c2)NC(=O)[C@H](CC(N)=O)NC1=O
target_under_test: hMC4-R (Homo sapiens (Human))
qualitative_label: yes (1)

chem_smiles: CC(=O)N[C@@H](CCCNC(=N)N)C(=O)N[C@H]1CCC(=O)NCCC[C@@H](C(N)=O)NC(=O)[C@H](Cc2c[nH]c3ccccc23)NC(=O)[C@H](CCCNC(=N)N)NC(=O)[C@@H](Cc2cccc(C)c2)NC(=O)[C@H](CCN)NC1=O
target_under_test: hMC4-R (Homo sapiens (Human))
qualitative_label: yes (1)

chem_smiles: CC(=O)NCC[C@@H]1NC(=O)[C@@H](NC(=O)[C@H](CCCNC(=N)N)NC(C)=O)CCC(=O)NCCC[C@@H](C(N)=O)NC(=O)[C@H](Cc2c[nH]c3ccccc23)NC(=O)[C@H](CCCNC(=N)N)NC(=O)[C@@H](Cc2ccccc2Cl)NC1=O
target_under_test: hMC4-R (Homo sapiens (Human))
qualitative_label: yes (1)

Asked: Decide: pEC50 of CC(=O)N[C@@H](CCCNC(=N)N)C(=O)N[C@H]1CCC(=O)NCCC[C@@H](C(N)=O)NC(=O)[C@H](Cc2c[nH]c3ccccc23)NC(=O)[C@H](CCCNC(=N)N)NC(=O)[C@@H](Cc2ccccc2C#N)NC(=O)[C@H](CCN)NC1=O >= 8?
Given back: no (0)

Asked: Decide: pEC50 of CC(=O)N[C@@H](CCCNC(=N)N)C(=O)N[C@H]1CCC(=O)NCCC[C@@H](C(N)=O)NC(=O)[C@H](Cc2c[nH]c3ccccc23)NC(=O)[C@H](CCCNC(=N)N)NC(=O)[C@@H](Cc2cccc([N+](=O)[O-])c2)NC(=O)[C@H](CCN)NC1=O >= 8?
Given back: yes (1)

Asked: Decide: pEC50 of CC(=O)N[C@@H](CCCNC(=N)N)C(=O)N[C@H]1CCC(=O)NCCC[C@@H](C(N)=O)NC(=O)[C@H](Cc2c[nH]c3ccccc23)NC(=O)[C@H](CCCNC(=N)N)NC(=O)[C@@H](Cc2ccccc2C(F)(F)F)NC(=O)[C@H](CCC(N)=O)NC1=O >= 8?
Given back: yes (1)

====

- target_under_test: hMC4-R (Homo sapiens (Human))
- method_description: High and low density hMC4-R functional assay (cAMP, HEK293-T-REx-MC4-R cells)
- Format: cell-based
- experimental_parameters: 0.1 ng/mL Doxycycline (low density hMC4-R system); NDP-α-MSH = 100%; read-out: Intrinsic Activity (%)
Positions of bridges follow the written chain, without caps; N, C: chain ends. Non-standard residues stand in square brackets, D forms with d. Residues, ends and D or L forms follow the SMILES beside them. dPhe(4-CN) = N#Cc1ccc(C[C@@H](N)C(=O)O)cc1; Orn = NCCC[C@H](N)C(=O)O
Entries and their Emax
Answer with the number, then the unit.

Below: 5 compounds and their reported Emax.
compound: CC(=O)N[C@@H](CCCNC(=N)N)C(=O)N[C@H]1CCC(=O)NCCC[C@@H](C(N)=O)NC(=O)[C@H](Cc2c[nH]c3ccccc23)NC(=O)[C@H](CCCNC(=N)N)NC(=O)[C@@H](Cc2ccc(C#N)cc2)NC(=O)[C@H](CCC(=O)O)NC1=O [Example 108] (Ac-REE[dPhe(4-CN)]RW[Orn]-NH2; lactam 2-7)
target_under_test: hMC4-R (Homo sapiens (Human))
Emax: 3%
//
compound: CC(=O)N[C@@H](CCCNC(=N)N)C(=O)N[C@H]1CCCNC(=O)CC[C@@H](C(N)=O)NC(=O)[C@H](Cc2c[nH]c3ccccc23)NC(=O)[C@H](CCCNC(=N)N)NC(=O)[C@@H](Cc2ccc(C#N)cc2)NC(=O)[C@H](CC(N)=O)NC1=O
target_under_test: hMC4-R (Homo sapiens (Human))
Emax: 18%
//
compound: CC(=O)N[C@@H](CCCNC(=N)N)C(=O)N[C@H]1CCC(=O)NCCC[C@@H](C(N)=O)NC(=O)[C@H](Cc2c[nH]c3ccccc23)NC(=O)[C@H](CCCNC(=N)N)NC(=O)[C@@H](Cc2cccc(Cl)c2)NC(=O)[C@H](CO)NC1=O
target_under_test: hMC4-R (Homo sapiens (Human))
Emax: 6%
//
compound: CC(=O)N[C@@H](CCCNC(=N)N)C(=O)N[C@H]1CCC(=O)NCCC[C@@H](C(N)=O)NC(=O)[C@H](Cc2c[nH]c3ccccc23)NC(=O)[C@H](CCCNC(=N)N)NC(=O)[C@@H](Cc2ccc(F)cc2)NC(=O)[C@H](CCC(N)=O)NC1=O
target_under_test: hMC4-R (Homo sapiens (Human))
Emax: 81%
//
compound: CC(=O)N[C@@H](CCCNC(=N)N)C(=O)N[C@H]1CCC(=O)NCCC[C@@H](C(N)=O)NC(=O)[C@H](Cc2c[nH]c3ccccc23)NC(=O)[C@H](CCCNC(=N)N)NC(=O)[C@@H](Cc2ccc(C#N)cc2)NC(=O)[C@H](CC(=O)O)NC1=O [Example 106] (Ac-RED[dPhe(4-CN)]RW[Orn]-NH2; lactam 2-7)
target_under_test: hMC4-R (Homo sapiens (Human))
Emax: 3%

Asked: // fetch Emax given entry CC(=O)N[C@@H](CCCNC(=N)N)C(=O)N[C@H]1CCC(=O)NCCC[C@@H](C(N)=O)NC(=O)[C@H](Cc2c[nH]c3ccccc23)NC(=O)[C@H](CCCNC(=N)N)NC(=O)[C@@H](Cc2ccccc2[N+](=O)[O-])NC(=O)[C@H](CCN)NC1=O
Given back: 78%

Asked: // fetch Emax given entry CC(=O)N[C@@H](CCCNC(=N)N)C(=O)N[C@H]1CCC(=O)NCCC[C@@H](C(N)=O)NC(=O)[C@H](Cc2c[nH]c3ccccc23)NC(=O)[C@H](CCCNC(=N)N)NC(=O)[C@@H](Cc2cccc(C#N)c2)NC(=O)[C@H](CCN)NC1=O
Given back: 29%

====

- target_under_test: hMC4-R (Homo sapiens (Human), UniProt P32245)
- Sequence (P32245 whole entry): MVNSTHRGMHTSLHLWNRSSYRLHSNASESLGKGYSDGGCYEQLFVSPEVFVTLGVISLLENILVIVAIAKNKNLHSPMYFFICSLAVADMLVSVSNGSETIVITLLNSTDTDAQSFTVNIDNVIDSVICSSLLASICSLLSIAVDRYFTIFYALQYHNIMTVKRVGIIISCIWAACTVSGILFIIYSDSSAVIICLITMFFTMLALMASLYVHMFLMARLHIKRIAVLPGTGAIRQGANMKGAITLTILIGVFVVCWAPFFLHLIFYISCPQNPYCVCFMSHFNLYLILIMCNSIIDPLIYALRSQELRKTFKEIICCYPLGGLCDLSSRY
- method_description: High and low density hMC4-R functional assay (cAMP, HEK293-T-REx-MC4-R cells)
- Type: cell-based
- experimental_parameters: 10 ng/mL Doxycycline (high density hMC4-R system); NDP-α-MSH = 100%; read-out: Intrinsic Activity (%)
- Description: The cells were then dispensed into 96-well plates (BD 353916) in 198 μL (about 5×10^4) cells/well and incubated for 10 minutes at 37° C. The compound to be tested was diluted with DMSO to a final concentration of 1 mM. […] 120 μL of the 1 mM compound stock was pipetted in the second column on the plate. […] All assay samples were run in duplicate (i.e. each sample was in two low dox and two high dox plates, respectively). The plates were gently shaken and incubated for 15 minutes at 37° C.
Entries and their Emax
The answer is to be given in %; state only the numeric part.

chem_smiles: CC(=O)N[C@@H](CCCNC(=N)N)C(=O)N[C@H]1CCCNC(=O)CC[C@@H](C(N)=O)NC(=O)[C@H](Cc2c[nH]c3ccccc23)NC(=O)[C@H](CCCNC(=N)N)NC(=O)[C@@H](Cc2cccc(C)c2)NC(=O)[C@H](CC(N)=O)NC1=O
Emax (%): 84

Asked: // fetch Emax given entry CC(=O)N[C@H](CCCNC(=N)N)C(=O)N[C@H]1CCCNC(=O)CC[C@@H](C(N)=O)NC(=O)[C@H](Cc2c[nH]c3ccccc23)NC(=O)[C@H](CCCNC(=N)N)NC(=O)[C@@H](Cc2ccccc2Cl)NC(=O)[C@H](Cc2c[nH]cn2)NC1=O
Given back: 94

Asked: // fetch Emax given entry CC(=O)N[C@@H](CCCNC(=N)N)C(=O)N[C@H]1CCC(=O)NCCC[C@@H](C(N)=O)NC(=O)[C@H](Cc2c[nH]c3ccccc23)NC(=O)[C@H](CCCNC(=N)N)NC(=O)[C@@H](Cc2ccccc2C#N)NC(=O)[C@H](CCN)NC1=O
Given back: 97
